- Target Or System: Carbonic anhydrase 2 (Homo sapiens)
- Experiment: Inhibition of recombinant human carbonic anhydrase-2 incubated for 15 mins by stopped-flow CO2 hydrase assay
Measurement Label: Ki (nM)
Give bare numbers, in nM.

Item CC(C(=O)NCCOc1ccc(S(N)(=O)=O)cc1)c1cccc(C(=O)c2ccccc2)c1 (racemic) has what recorded Ki?
6.7

Which value of Ki has been reported for CC1=C(CC(=O)NCCCCOc2ccc(S(N)(=O)=O)cc2)c2cc(F)ccc2/C1=C/c1ccc([S+](C)[O-])cc1 (stereo not drawn) in the records?
66.4

What measured Ki goes with COc1ccc2c(c1)c(CC(=O)NCCCOc1ccc(S(N)(=O)=O)cc1)c(C)n2C(=O)c1ccc(Cl)cc1 ?
84.3

Which value of Ki has been reported for CC1=C(CC(=O)NCCc2ccc(S(N)(=O)=O)cc2)c2cc(F)ccc2/C1=C/c1ccc([S+](C)[O-])cc1 (stereo not drawn) in the records?
27.3

For COc1ccc2c(c1)c(CC(=O)Nc1ccc(S(N)(=O)=O)cc1)c(C)n2C(=O)c1ccc(Cl)cc1 , what is its reported Ki?
92.5

Parameter requested: Ki. Apply to each item below.
1. COc1ccc2c(c1)c(CC(=O)NCCCCOc1ccc(S(N)(=O)=O)cc1)c(C)n2C(=O)c1ccc(Cl)cc1
2. COc1ccc2cc(C(C)C(=O)NCCc3ccc(S(N)(=O)=O)cc3)ccc2c1 (racemic)
3. CC(C)Cc1ccc(C(C)C(=O)NCCc2ccc(S(N)(=O)=O)cc2)cc1 (racemic)
4. CC(C(=O)Nc1ccc(S(N)(=O)=O)cc1)c1ccc(-c2ccccc2)c(F)c1 (racemic)
5. CC(C(=O)NCCc1ccc(S(N)(=O)=O)cc1)c1cccc(C(=O)c2ccccc2)c1 (racemic)
6. NS(=O)(=O)c1ccc(OCCNC(=O)Cc2ccccc2Nc2c(Cl)cccc2Cl)cc1
7. COc1ccc2c(c1)c(CC(=O)NCCc1ccc(S(N)(=O)=O)cc1)c(C)n2C(=O)c1ccc(Cl)cc1
8. CC(C(=O)Nc1ccc(S(N)(=O)=O)cc1)c1cccc(C(=O)c2ccccc2)c1 (racemic)

1: 8.1; 2: 5.2; 3: 9.2; 4: 5.5; 5: 6.5; 6: 187; 7: 95.8; 8: 4.6

Take each entry in turn and give its Ki.
1. CC(C(=O)NCCc1ccc(S(N)(=O)=O)cc1)c1ccc(-c2ccccc2)c(F)c1 (racemic)
2. NS(=O)(=O)c1ccc(NC(=O)Cc2ccccc2Nc2c(Cl)cccc2Cl)cc1
3. CC(C(=O)NCCCCOc1ccc(S(N)(=O)=O)cc1)c1ccc(-c2ccccc2)c(F)c1 (stereo not drawn)
4. CC(C)Cc1ccc(C(C)C(=O)Nc2ccc(S(N)(=O)=O)cc2)cc1 (racemic)
5. CC(C)Cc1ccc(C(C)C(=O)NCCCOc2ccc(S(N)(=O)=O)cc2)cc1 (racemic)

7.8
89.2
86.7
32.4
25.2
